# Tested on: Plasmodium berghei
# ASSAY INFO: Luciferase/luciferin-expressing antifolate-resistant parasites were used to infect a culture of HepG2 cells that were pre-incubated with compounds. Infected hepatocytes emit light due to the luciferase reaction. Assay results are presented as the percent inhibition of light emission compared to control. […]
# Assay type: functional
# RUN PARAMETERS: sporozoite, PBLUC_HILL_SLOPE 1.38, PBLUC_R_SQUARED 0.237, read-out: LUCIFERASE INFECTION ASSAY - IC50
ASSAY READOUT: pIC50
# pIC50 = -log10(concentration in molar units)

May I ask what pIC50 has been recorded for NC(=O)c1cc(-c2cs/c(=N\c3ccccc3F)n2C2CCCC2)ccc1O ?
5.36
